compounds and their reported EC50
study_system: recombinant IL4I1 (Homo sapiens (Human))
experiment_notes: IL4I1 Enzymatic Assay (Amplex Red/HRP coupled fluorescence detection of H2O2)
Type: biochemical
recorded_conditions: 240 min; recombinant IL4I1, four-hour pre-incubation with compound
Use nM as the unit, but write only the number.

compound="O=C1C(=O)N(C2CCCC2)CCN1CCc1cc(-c2ccccc2)on1 [Example 119]" study_system="recombinant IL4I1 (Homo sapiens (Human))" units_symbol=nM experimental_result=4
compound="O=C1C(=O)N(C2CCCC2)CCN1Cc1ccc(-n2nccn2)cc1 [Example 140]" study_system="recombinant IL4I1 (Homo sapiens (Human))" units_symbol=nM experimental_result=36
compound="O=c1c(=O)n(C23CC(F)(C2)C3)ccn1Cc1ccc(-n2nccn2)cn1 [Example 217]" study_system="recombinant IL4I1 (Homo sapiens (Human))" units_symbol=nM experimental_result=42

## Input Name the reported EC50 value associated with the compound O=C1C(=O)N(C2CCCC2)CCN1Cc1ncc(-c2ccccc2)cn1 [Example 4]
## Output 19

## Input Name the reported EC50 value associated with the compound O=C1C(=O)N(C2CC(c3ccccc3)C2)CCN1Cc1ncc(-c2ccccc2)cn1 (centres unmarked) [Example 141]
## Output 23

----------
study_system: recombinant IL4I1 (Homo sapiens (Human))
experiment_notes: IL4I1 Enzymatic Assay (Amplex Red/HRP coupled fluorescence detection of H2O2)
Assay type: biochemical
recorded_conditions: 240 min; recombinant IL4I1, four-hour pre-incubation with compound
Description: Interleukin 4 inducible protein 1 (IL4I1) is an L-amino oxidase that catalyzes the oxidation of aromatic residues (Phe, Trp and Tyr): L-amino acid+H2O+O2→2-oxo acid+NH3+H2O2. […] In this assay, the hydrogen peroxide generated by IL4I1 is then detected through a coupled reaction with Amplex® Red (10-acetyl-3,7-dihydroxyphenoxazine) and horseradish peroxidase (HRP) to produce resorufin product that could be detected in the form of fluorescence signals. […]
observed_property: EC50 (nM)
Use nM as the unit, but write only the number.

molecule="O=C1C(=O)N([C@H]2C[C@@H](c3ccccc3)C2)CCN1Cc1ccc(-n2ccnn2)nn1 [Example 327]" experimental_result=16

## Input Name the reported EC50 value associated with the molecule O=C1C(=O)N(C23CC(C2)C3)CCN1Cc1cnc(-c2ccccc2)cn1 [Example 112]
## Output 7

## Input Name the reported EC50 value associated with the molecule O=c1c(=O)n(C2CCC2)ccn1Cc1ccc(-c2cccc(F)c2)nn1 [Example 63]
## Output 3

## Input Name the reported EC50 value associated with the molecule O=C1C(=O)N(C2CCCC2)CCN1Cc1nnc(-c2ccc(F)cc2)s1 [Example 351]
## Output 8

## Input Name the reported EC50 value associated with the molecule O=c1c(=O)n(C23CC(C2)C3)ccn1Cc1ccc(-n2ccnn2)cn1 [Example 388]
## Output 23

## Input Name the reported EC50 value associated with the molecule O=c1c(=O)n(C23CC(F)(C2)C3)ccn1Cc1ccc(-n2cccn2)cn1 [Example 219]
## Output 59

----------
study_system: recombinant IL4I1 (Homo sapiens (Human), UniProt Q96RQ9)
Sequence (Q96RQ9 22-567): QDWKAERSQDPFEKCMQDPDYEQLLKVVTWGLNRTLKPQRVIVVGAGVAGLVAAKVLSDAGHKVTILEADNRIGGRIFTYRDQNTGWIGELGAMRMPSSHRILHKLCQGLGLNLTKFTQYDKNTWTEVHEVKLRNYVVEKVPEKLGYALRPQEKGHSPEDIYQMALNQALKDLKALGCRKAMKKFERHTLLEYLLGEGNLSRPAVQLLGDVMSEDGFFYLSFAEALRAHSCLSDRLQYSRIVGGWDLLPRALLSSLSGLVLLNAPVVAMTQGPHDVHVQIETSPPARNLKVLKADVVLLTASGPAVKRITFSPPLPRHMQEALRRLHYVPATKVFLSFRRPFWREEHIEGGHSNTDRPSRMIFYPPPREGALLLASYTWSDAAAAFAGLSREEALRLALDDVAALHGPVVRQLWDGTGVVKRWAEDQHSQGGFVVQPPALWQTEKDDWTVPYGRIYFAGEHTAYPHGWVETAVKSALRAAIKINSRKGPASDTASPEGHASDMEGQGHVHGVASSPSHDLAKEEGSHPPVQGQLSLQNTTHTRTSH
experiment_notes: IL4I1 Enzymatic Assay (Amplex Red/HRP coupled fluorescence detection of H2O2)
Format: biochemical
recorded_conditions: 240 min; recombinant IL4I1, four-hour pre-incubation with compound
Exam item: assign criterion met to entries whose EC50 is below 10 nM and criterion not met to entries at or above 10 nM. Note that a value of exactly 10 nM receives criterion not met.

Consider the following illustrative entries.
molecule="O=C1C(=O)N(C2CCCC2)CCN1Cc1ccc(-c2ccccn2)nn1 [Example 368]" class="criterion not met"
molecule="O=C1C(=O)N([C@H]2C[C@H]3C[C@H]3C2)CCN1Cc1nnc(-c2ccccc2)s1 [Example 283]" class="criterion met"
molecule="O=c1c(=O)n(C23CC(C2)C3)ccn1Cc1ccc(-n2cccn2)nc1 [Example 384]" class="criterion met"
molecule="O=C1C(=O)N(C2CCCC2)CCN1Cc1ccc(-c2cn[nH]c2)nn1 [Example 15]" class="criterion not met"

## Input Is EC50 strictly under 10 nM for the entry O=C1C(=O)N(C2CCCC2)CCN1Cc1ccc(-c2nccs2)nn1 [Example 362] ?
## Output criterion not met

## Input Is EC50 strictly under 10 nM for the entry O=c1c(=O)n(C2(CF)CC2)ccn1Cc1ccc(-c2cccnc2)nn1 [Example 227] ?
## Output criterion not met

## Input Is EC50 strictly under 10 nM for the entry N#CC12CC(N3CCN(Cc4nnc(-c5ccccc5)s4)C(=O)C3=O)(C1)C2 [Example 295] ?
## Output criterion not met

## Input Is EC50 strictly under 10 nM for the entry O=c1c(=O)n(C2CCC2)ccn1Cc1cc(-c2ccc(F)cc2)no1 [Example 159] ?
## Output criterion met

## Input Is EC50 strictly under 10 nM for the entry O=c1c(=O)n(C23CC(C2)C3)ccn1Cc1ccc(-c2cccnc2)nn1 [Example 85] ?
## Output criterion not met

## Input Is EC50 strictly under 10 nM for the entry O=c1c(=O)n(C23CC(C2)C3)ccn1Cc1cn(-c2ccccn2)nn1 [Example 427] ?
## Output criterion not met

## Input Is EC50 strictly under 10 nM for the entry N#Cc1ccccc1-c1cc(CN2CCN(C34CC(C3)C4)C(=O)C2=O)no1 [Example 424] ?
## Output criterion not met

## Input Is EC50 strictly under 10 nM for the entry O=C1C(=O)N(C23CC(F)(C2)C3)CCN1Cc1ccc(-c2nccs2)nn1 [Example 234] ?
## Output criterion not met

## Input Is EC50 strictly under 10 nM for the entry O=C1C(=O)N(C2CCCC2)CCN1Cc1ccc(-c2ccccc2)nn1 [Example 3] ?
## Output criterion not met

## Input Is EC50 strictly under 10 nM for the entry CC1CCC(N2CCN(Cc3ncc(-c4ccccc4)cn3)C(=O)C2=O)C1 (single isomer, unassigned) [Example 344] ?
## Output criterion not met

## Input Is EC50 strictly under 10 nM for the entry O=c1c(=O)n(C2CCC2)ccn1Cc1cc(-c2cccc(F)c2)on1 [Example 54] ?
## Output criterion met

## Input Is EC50 strictly under 10 nM for the entry [2H]C1(n2ccn(Cc3nnc(-c4ccccc4)s3)c(=O)c2=O)CCCC1 [Example 293] ?
## Output criterion not met

Ref: patent US20240246937A1
